Values compiled from PubChem BioAssay (NCI).

experiment: NCI Yeast Anticancer Drug Screen. Data for the mec2-1 strain (AID 157); settings: S. cerevisiae mec2-1 strain, at 11.0 µM, hits give high values
Compounds without any hit were thinned out: in the full panel of roughly 79,000, 15% have a hit.
measurement_type: growth inhibition (%)
Answers are plain numbers, in %.

Known growth inhibition results, listed for orientation:
- molecule: "CC1=C(C)C(=O)C2=C(OCCO2)C1=O"
  measurement_type: "growth inhibition"
  u: "%"
  readout_value: -5
- molecule: "CCOC(=O)CC1(C)/C(=N\\Nc2ccc([N+](=O)[O-])cc2[N+](=O)[O-])CCC2C1CCC1(C)C(C(C)CCCC(C)C)CCC21 (centres undefined)"
  measurement_type: "growth inhibition"
  u: "%"
  readout_value: -5
- molecule: "CCCCCCCN1C(=O)c2ccccc2C1=O"
  measurement_type: "growth inhibition"
  u: "%"
  readout_value: -27

I have 6 molecules here; please give me growth inhibition for each one.
1. O=C1c2ccccc2-c2cc3ccccc3c(=O)n21
2. NNc1ccccc1-c1nc2ccccc2[nH]1
3. O=[N+]([O-])/C=C/c1cc2ccc3ccccc3c2[nH]1
4. c1ccc2c(c1)ccn2CCc1c[nH]c2ccccc12
5. CO[C@@]1([C@@H](Cl)c2ccccc2)C(=O)N(C)/C(=C\c2ccccc2)C(=O)N1C
6. CC1(C)C(O)OC(O)C1(C)C (centres undefined)

*A*
1: 48; 2: 2; 3: 63; 4: -27; 5: 0; 6: 2

I have 5 molecules here; please give me growth inhibition for each one.
1. O=C(Nc1ccc(Cl)cc1)c1cc2cc(N=Nc3ccccc3Cl)ccc2oc1=O
2. CCN(CC)CCNc1ccc(C)c2sc3ccc(O)cc3c(=O)c12
3. C1=CCN([B-](c2ccccc2)[C+]2CCCCC2)C=C1
4. Cc1c2cc[n+](CCO)cc2c(C)c2c1[nH]c1ccc(O)cc12
5. Nc1ccc2c(c1)C(=O)c1c(F)cccc1-2

*A*
1: 40; 2: 36; 3: 4; 4: 30; 5: 18

I have 7 molecules here; please give me growth inhibition for each one.
1. C=CC(C)(C)N1C(=O)C(C(C)=O)=C(O)C1Cc1c[nH]c2ccccc12 (centres undefined)
2. O=C(NO)c1coc2ccccc2c1=O
3. O=C(NCCCCN1CC2CCCC2C1)C(C1CCCCC1)C1CCCCC1 (centres undefined)
4. Clc1ccc(/C(=C\c2ccccc2)Cn2ccnc2)cc1
5. CNC(=S)N/N=C(/C)CCC/C(C)=N/NC(=S)NC
6. Cc1cccc2c1C1c3c(C)cccc3C(CC(=O)O)CC1CC2 (centres undefined)
7. CC1(C)OC(=O)C(=Cc2ccc([N+](=O)[O-])s2)C(=O)O1

*A*
7
-1
39
37
53
98
-23
